Consider the following molecules and their measured DiscoveRx β-arrestin2 Ymax (%) readings.
- Target Or System: AGTR1 (Homo sapiens)
- Construct: host or cells: Pathunter CHO-K1 AGTR1 β-arrestin cell line (CHO-K1)
- Sequence (P30556 1-359): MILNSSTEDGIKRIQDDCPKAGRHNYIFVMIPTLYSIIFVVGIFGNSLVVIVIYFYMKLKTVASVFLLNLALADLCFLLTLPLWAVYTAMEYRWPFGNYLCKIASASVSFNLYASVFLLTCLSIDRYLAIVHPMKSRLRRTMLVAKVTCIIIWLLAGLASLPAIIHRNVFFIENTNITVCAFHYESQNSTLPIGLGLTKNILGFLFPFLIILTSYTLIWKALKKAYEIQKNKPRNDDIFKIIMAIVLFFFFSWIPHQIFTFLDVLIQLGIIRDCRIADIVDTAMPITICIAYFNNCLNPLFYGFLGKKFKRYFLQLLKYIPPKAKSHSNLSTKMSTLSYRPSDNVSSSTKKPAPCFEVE
- Method Description: DiscoveRx β-arrestin2 recruitment assay (enzyme complementation, Pathunter CHO-K1 AGTR1 β-arrestin cell line)
- Format: cell-based
- Experimental Conditions: DiscoveRx β-arrestin2 recruitment, maximal response

Molecule	DiscoveRx β-arrestin2 Ymax (%)
CCc1nc2c(C)cc(C)nc2n1Cc1ccc(-c2cc(-n3cccc3)ccc2-c2nn[nH]n2)cc1	23.2%
CCOc1nc2cccc(C(=O)O)c2n1Cc1ccc(-c2cc(-c3c[nH]c4ccccc34)ccc2-c2noc(=O)[nH]2)cc1	33.7%
CCCCc1ncc(C(=O)N2CCCCC2)n1Cc1ccc(-c2cc(-c3ccccc3)ccc2-c2nn[nH]n2)cc1	15.7%
CCCc1cn(-c2ccc(-c3nnn[nH]3)c(-c3ccc(Cn4c(CC)nc5c(C)cc(C)nc54)cc3)c2)nn1	32.1%
CCc1nc2c(C)cc(C)nc2n1Cc1ccc(-c2cc(C3CCCCN3)ccc2-c2nn[nH]n2)cc1 (single isomer, unassigned) [Example 75]	7.1%
CC1=NC2(CCOCC2)C(=O)N1Cc1ccc(-c2cc(-c3ccccc3)ccc2-c2nn[nH]n2)cc1	27.1%
